Tested on: HS 578T breast
Assay: NCI tumour cell line growth inhibition, 48 h
Where a SMILES comes first, the peptide text is derived from it. [ ]: non-standard residue; d: D form. The star is where a group is joined. dTle = CC(C)(C)[C@@H](N)C(=O)O; 4Abz = Nc1ccc(C(=O)O)cc1; NHOH = ON*

- MOLECULE: "C[C@@H](NC(=O)[C@H](NC(=O)[C@@H]1CCCN1C(=O)CNC(=O)c1ccc(N)cc1)C(C)(C)C)C(=O)NO (H-[4Abz]GP[dTle][dA]-{NHOH})"
  TGT: "HS 578T breast"
  GI50: "> 100 µM"
- MOLECULE: "O=C(/C=C/C12c3ccccc3C(c3ccccc31)C1C(=O)NC(=O)C12)c1ccc(F)cc1 (stereo not drawn)"
  TGT: "HS 578T breast"
  GI50: "2.28 µM"
- MOLECULE: "CCC(=O)Nc1ccc(C)c(-c2ccc(C(=O)NCC3CC3)cc2)c1"
  TGT: "HS 578T breast"
  GI50: "> 25 µM"
- MOLECULE: "O=C1c2ccccc2-c2c1c1c(O)cccc1n2Cc1ccccn1"
  TGT: "HS 578T breast"
  GI50: "33.6 µM"
- MOLECULE: "Oc1ccc(C2c3ccccc3Oc3ccccc32)c2cccnc12"
  TGT: "HS 578T breast"
  GI50: "3.45 µM"
- MOLECULE: "CC1(C)NCCC[C@]2(C)[C@H]3CC[C@@H]4[C@H]5[C@H](C(=O)/C=C/c6ccccn6)CC[C@]5(CO)CC[C@@]4(C)[C@]3(C)CC[C@@H]12"
  TGT: "HS 578T breast"
  GI50: "4.39 µM"
- MOLECULE: "Cc1ccc(C(=O)/C(=C\\c2ccc([N+](=O)[O-])cc2)S(=O)Cc2ccc(Cl)cc2)cc1 (stereo not drawn)"
  TGT: "HS 578T breast"
  GI50: "2.48 µM"
- MOLECULE: "Cc1cc(-c2ccccn2)cc(C)c1/C=C/c1cncc(-c2nn[nH]n2)c1"
  TGT: "HS 578T breast"
  GI50: "> 25 µM"

FYI, the data here is from PubChem BioAssay (NCI).
